Tested on: biotinyl-Val-oxazolone
assay procedure: self-aminoacylation, catalytic enhancement (BVO) (fold over background); higher = more active; k-Seq, kA / k0A0; sequences stand for … in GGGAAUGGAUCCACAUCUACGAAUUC…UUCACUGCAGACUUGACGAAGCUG
Variants at the floor of the assay were thinned out.
readout name: self-aminoacylation

Examples from the recorded data:
AAUUUUGCUAAUAGUCGCAAA [Fam3.1 aminoacylation ribozyme variant] :: 2.15
CCACACUUAAAGCGAUCGGUC [Fam1B.1 aminoacylation ribozyme variant] :: 1.18
CAACACUUCAAGCUAUCGGUC [Fam1B.1 aminoacylation ribozyme variant] :: 1.05
AUUGACCUAGGUCAUCUGGUG [Fam2.2 aminoacylation ribozyme variant] :: 1.7
CUUCUUCAAACAAUCGGUCUG [Fam1A.1 aminoacylation ribozyme variant] :: 0.902
AUUACACGGGUCAUCGAGUGA [Fam2.1 aminoacylation ribozyme variant] :: 3.1
UCACACUUCAAGCAAGCGGUC [Fam1B.1 aminoacylation ribozyme variant] :: 1.06
GCGUUUGCUAAUAGUCGCAAG [Fam3.1 aminoacylation ribozyme variant] :: 2.05
CCACACUUCAAGCAAUAGGCC [Fam1B.1 aminoacylation ribozyme variant] :: 1.04
CCACACUCCAAGCAAUCGCUC [Fam1B.1 aminoacylation ribozyme variant] :: 2.56

I'm curious: which self-aminoacylation was measured for ACUACCCUGGUCACCGAGUGA [Fam2.1 aminoacylation ribozyme variant] tested on biotinyl-Val-oxazolone?
4.77

I'm curious: which self-aminoacylation was measured for CUACUUCAAACACUCGGCCUG [Fam1A.1 aminoacylation ribozyme variant] tested on biotinyl-Val-oxazolone?
2.38

I'm curious: which self-aminoacylation was measured for AUUCACCAAGGACAUCGGGUG [Fam2.2 aminoacylation ribozyme variant] tested on biotinyl-Val-oxazolone?
3.27

I'm curious: which self-aminoacylation was measured for CUACUUCAAACACUCGGUCUC [Fam1A.1 aminoacylation ribozyme variant] tested on biotinyl-Val-oxazolone?
0.808

I'm curious: which self-aminoacylation was measured for CUUCACUUAGGUCAUCGGGUG [Fam2.2 aminoacylation ribozyme variant] tested on biotinyl-Val-oxazolone?
2.8

I'm curious: which self-aminoacylation was measured for AUUACCCUGGGCAACGAGUGA [Fam2.1 aminoacylation ribozyme variant] tested on biotinyl-Val-oxazolone?
4

I'm curious: which self-aminoacylation was measured for AAGCUUGCUAAAAGUCGCAAG [Fam3.1 aminoacylation ribozyme variant] tested on biotinyl-Val-oxazolone?
1.79

I'm curious: which self-aminoacylation was measured for AUUCCCCUAGGUCAACGGGUG [Fam2.2 aminoacylation ribozyme variant] tested on biotinyl-Val-oxazolone?
6.99

I'm curious: which self-aminoacylation was measured for CCACACUUCAAGAAAUCGCUC [Fam1B.1 aminoacylation ribozyme variant] tested on biotinyl-Val-oxazolone?
1.05

I'm curious: which self-aminoacylation was measured for AUAACCCUGGUCAUCGAGAGA [Fam2.1 aminoacylation ribozyme variant] tested on biotinyl-Val-oxazolone?
0.839

I'm curious: which self-aminoacylation was measured for CCCCACUUCAAGCAAUCGGUC [Fam1B.1 aminoacylation ribozyme variant] tested on biotinyl-Val-oxazolone?
1.83

I'm curious: which self-aminoacylation was measured for CUACGUCAGACAAUCGGUCUG [Fam1A.1 aminoacylation ribozyme variant] tested on biotinyl-Val-oxazolone?
1.42

I'm curious: which self-aminoacylation was measured for CCACACUUCAAGGAAUUGGUC [Fam1B.1 aminoacylation ribozyme variant] tested on biotinyl-Val-oxazolone?
0.726

I'm curious: which self-aminoacylation was measured for CCCCACUUCAAGCAAUCCGUC [Fam1B.1 aminoacylation ribozyme variant] tested on biotinyl-Val-oxazolone?
1.6

I'm curious: which self-aminoacylation was measured for AUUCACCUAGGUCUUAGGGUG [Fam2.2 aminoacylation ribozyme variant] tested on biotinyl-Val-oxazolone?
2.85

I'm curious: which self-aminoacylation was measured for AUCACCCUGGUCUUCGAGUGA [Fam2.1 aminoacylation ribozyme variant] tested on biotinyl-Val-oxazolone?
4.74

I'm curious: which self-aminoacylation was measured for AACUUUGCUAAUAGUCGCCAG [Fam3.1 aminoacylation ribozyme variant] tested on biotinyl-Val-oxazolone?
2.87

I'm curious: which self-aminoacylation was measured for AUUACCCUGGUCUCCGAGUGA [Fam2.1 aminoacylation ribozyme variant] tested on biotinyl-Val-oxazolone?
4.33

I'm curious: which self-aminoacylation was measured for CUACCUCAAAUAAUCGGUCUG [Fam1A.1 aminoacylation ribozyme variant] tested on biotinyl-Val-oxazolone?
0.863

I'm curious: which self-aminoacylation was measured for CUACUCCAAACAAUCCGUCUG [Fam1A.1 aminoacylation ribozyme variant] tested on biotinyl-Val-oxazolone?
0.821

I'm curious: which self-aminoacylation was measured for AAGUUUGCUAUUAGUCCCAAG [Fam3.1 aminoacylation ribozyme variant] tested on biotinyl-Val-oxazolone?
1.02

I'm curious: which self-aminoacylation was measured for UAGCUUGCUAAUAGUCGCAAG [Fam3.1 aminoacylation ribozyme variant] tested on biotinyl-Val-oxazolone?
2.22

I'm curious: which self-aminoacylation was measured for AAAUUUGCUCAUAGUCGCAAG [Fam3.1 aminoacylation ribozyme variant] tested on biotinyl-Val-oxazolone?
1.57

I'm curious: which self-aminoacylation was measured for AUUUACCUAGGUCCUCGGGUG [Fam2.2 aminoacylation ribozyme variant] tested on biotinyl-Val-oxazolone?
3.3

I'm curious: which self-aminoacylation was measured for AUUACGCUGGUGAUCGAGUGA [Fam2.1 aminoacylation ribozyme variant] tested on biotinyl-Val-oxazolone?
2.59
